- PROCEDURE_TEXT: Cytotoxicity against human HL60 cells by MTT assay
- Format: functional, cell-based
- CONDITION_SUMMARY: HL-60
For each record, write down the corresponding IC50.

For each listed entry, give its IC50.
1. COc1cc([C@@H]2O[C@H](c3ccc4c(c3)OCO4)[C@H](C)[C@H]2C)cc(O)c1OC
2. COc1cc2c(cc1O)[C@@H]1O[C@H](c3cc4c(c(OC)c3-2)OCO4)[C@H](C)[C@@H]1C
3. COc1cc([C@H]2O[C@@H](c3ccc4c(c3)OCO4)[C@H](C)[C@@H]2C)cc(O)c1OC
4. COc1cc(C(=O)O[C@@H](c2cc(O)c(OC)c(OC)c2)[C@H](C)C(C)=O)cc(O)c1OC
5. COc1cc([C@@H]2O[C@H](c3cc(O)c(OC)c(OC)c3)[C@@H](C)[C@@H]2C)ccc1O
6. COC1=CC2(C=C(OC)C1=O)C[C@@H](C)[C@H](C)Cc1cc3c(c(OC)c12)OCO3
7. COc1cc(C(=O)O[C@@H](c2cc(OC)c(OC)c(OC)c2)[C@H](C)C(C)=O)ccc1O

Output:
> 40 µM
17 µM
39.8 µM
> 40 µM
> 40 µM
> 40 µM
> 40 µM
